Target: UBE2N
Assay: reporter assay of Huesken 2005; note: test concentration or dose not given here
Conditions: siRNA
Oligonucleotides are given in HELM: sugar(base)linkage, 5' to 3'; d 2'-deoxyribose, r ribose, m 2'-O-methylribose, p phosphate. ss, as = sense and antisense strand
# normalised inhibition (eCFP-eYFP dual reporter) listing for each entry below
# value in %; strip the unit string

[
  {
    "SUBSTANCE": "RNA1{r(C)p.r(G)p.r(U)p.r(U)p.r(U)p.r(C)p.r(A)p.r(U)p.r(G)p.r(A)p.r(C)p.r(C)p.r(A)p.r(A)p.r(A)p.r(A)p.r(U)p.r(U)p.r(U)p.d(T)p.d(T)}|RNA2{r(A)p.r(A)p.r(A)p.r(U)p.r(U)p.r(U)p.r(U)p.r(G)p.r(G)p.r(U)p.r(C)p.r(A)p.r(U)p.r(G)p.r(A)p.r(A)p.r(A)p.r(C)p.r(G)p.d(T)p.d(A)}$$$RNA1{StrandType:ss}|RNA2{StrandType:as}$",
    "MEASURED_TARGET": "UBE2N",
    "UOM": "%",
    "QUANTITATIVE_READOUT": 100
  }
]

Any idea what its normalised inhibition (eCFP-eYFP dual reporter) is? The substance is RNA1{r(A)p.r(U)p.r(U)p.r(U)p.r(A)p.r(U)p.r(C)p.r(A)p.r(U)p.r(C)p.r(C)p.r(U)p.r(A)p.r(A)p.r(U)p.r(G)p.r(U)p.r(A)p.r(G)p.d(T)p.d(T)}|RNA2{r(C)p.r(U)p.r(A)p.r(C)p.r(A)p.r(U)p.r(U)p.r(A)p.r(G)p.r(G)p.r(A)p.r(U)p.r(G)p.r(A)p.r(U)p.r(A)p.r(A)p.r(A)p.r(U)p.d(T)p.d(T)}$$$RNA1{StrandType:ss}|RNA2{StrandType:as}$
49.2

* * *

This section presents substances with their documented normalised inhibition (eCFP-eYFP dual reporter) values.
Biological target: Mmp7 (rat)
Experiment: reporter assay of Huesken 2005
Conditions: siRNA
Oligonucleotides are given in HELM: sugar(base)linkage, 5' to 3'; d 2'-deoxyribose, r ribose, m 2'-O-methylribose, p phosphate. ss, as = sense and antisense strand
Could you give me the number in %? Just the number is fine.

Answered cases to consult:
[
  {
    "SUBSTANCE": "RNA1{r(A)p.r(A)p.r(G)p.r(G)p.r(A)p.r(U)p.r(G)p.r(A)p.r(G)p.r(U)p.r(A)p.r(C)p.r(U)p.r(G)p.r(G)p.r(A)p.r(C)p.r(G)p.r(G)p.d(T)p.d(T)}|RNA2{r(C)p.r(C)p.r(G)p.r(U)p.r(C)p.r(C)p.r(A)p.r(G)p.r(U)p.r(A)p.r(C)p.r(U)p.r(C)p.r(A)p.r(U)p.r(C)p.r(C)p.r(U)p.r(U)p.d(G)p.d(T)}$$$RNA1{StrandType:ss}|RNA2{StrandType:as}$",
    "UOM": "%",
    "QUANTITATIVE_READOUT": 75.8
  },
  {
    "SUBSTANCE": "RNA1{r(G)p.r(U)p.r(G)p.r(U)p.r(C)p.r(A)p.r(U)p.r(G)p.r(G)p.r(A)p.r(G)p.r(A)p.r(U)p.r(A)p.r(A)p.r(U)p.r(G)p.r(C)p.r(A)p.d(T)p.d(T)}|RNA2{r(U)p.r(G)p.r(C)p.r(A)p.r(U)p.r(U)p.r(A)p.r(U)p.r(C)p.r(U)p.r(C)p.r(C)p.r(A)p.r(U)p.r(G)p.r(A)p.r(C)p.r(A)p.r(C)p.d(G)p.d(G)}$$$RNA1{StrandType:ss}|RNA2{StrandType:as}$",
    "UOM": "%",
    "QUANTITATIVE_READOUT": 112
  }
]

Give recorded normalised inhibition (eCFP-eYFP dual reporter) with Mmp7 (rat) for the following substance: RNA1{r(U)p.r(U)p.r(G)p.r(C)p.r(C)p.r(G)p.r(G)p.r(A)p.r(G)p.r(A)p.r(C)p.r(U)p.r(G)p.r(G)p.r(A)p.r(A)p.r(A)p.r(G)p.r(C)p.d(T)p.d(T)}|RNA2{r(G)p.r(C)p.r(U)p.r(U)p.r(U)p.r(C)p.r(C)p.r(A)p.r(G)p.r(U)p.r(C)p.r(U)p.r(C)p.r(C)p.r(G)p.r(G)p.r(C)p.r(A)p.r(A)p.d(A)p.d(C)}$$$RNA1{StrandType:ss}|RNA2{StrandType:as}$
1.9

Next entry: RNA1{r(C)p.r(C)p.r(U)p.r(G)p.r(C)p.r(C)p.r(A)p.r(C)p.r(U)p.r(G)p.r(U)p.r(C)p.r(C)p.r(C)p.r(A)p.r(G)p.r(G)p.r(A)p.r(A)p.d(T)p.d(T)}|RNA2{r(U)p.r(U)p.r(C)p.r(C)p.r(U)p.r(G)p.r(G)p.r(G)p.r(A)p.r(C)p.r(A)p.r(G)p.r(U)p.r(G)p.r(G)p.r(C)p.r(A)p.r(G)p.r(G)p.d(G)p.d(C)}$$$RNA1{StrandType:ss}|RNA2{StrandType:as}$
67.9

Same read-out for RNA1{r(G)p.r(G)p.r(G)p.r(C)p.r(C)p.r(A)p.r(G)p.r(G)p.r(A)p.r(A)p.r(A)p.r(C)p.r(A)p.r(C)p.r(U)p.r(C)p.r(U)p.r(A)p.r(G)p.d(T)p.d(T)}|RNA2{r(C)p.r(U)p.r(A)p.r(G)p.r(A)p.r(G)p.r(U)p.r(G)p.r(U)p.r(U)p.r(U)p.r(C)p.r(C)p.r(U)p.r(G)p.r(G)p.r(C)p.r(C)p.r(C)p.d(A)p.d(T)}$$$RNA1{StrandType:ss}|RNA2{StrandType:as}$ ?
83.5

Where do these numbers come from? They come from the OligoGym collection.
